Known normalized growth of a selection of compounds
- ASSAY_OVERVIEW: chemical genetic growth profiling, strain panel (AID 1159580);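 further: tested at 20 µM; growth read once vehicle control cultures reached saturation at 30 °C; 1 = growth at the plate median or of vehicle wells; lower values mean less growth of the strain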
- RECORDED_CONDITIONS: S. cerevisiae deletion strains, growth OD, locus YJL129C, strain trk1, stronger effect = lower value
The whole screen tested about 5,500 compounds, of which about 2,000 (36%) were called active. Another 18% or so got no clear call; they are omitted. The list shows a part of the results.
TEST_READOUT: normalized growth

compound_structure=O=[N+]([O-])c1cccc2c(Br)[nH]nc12 observed_result=0.988
compound_structure=O=c1cc(-c2cc(O)c(O)c(O)c2)oc2cc(O)cc(O)c12 observed_result=0.991
compound_structure=CCCC(CCC)C(=O)O observed_result=1.01
compound_structure=O=[N+]([O-])c1cccc2cn[nH]c12 observed_result=1

###

- ASSAY_OVERVIEW: chemical genetic growth profiling, strain panel (AID 1159580);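 further: tested at 20 µM; growth read once vehicle control cultures reached saturation at 30 °C; 1 = growth at the plate median or of vehicle wells; lower values mean less growth of the strain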
- RECORDED_CONDITIONS: S. cerevisiae deletion strains, growth OD, locus YLR371W, strain rom2
Among all 5,500 compounds or so, about 2,000 (36%) were called active. About 18% were inconclusive and are not listed. Rule as the data show it: active = normalized growth mostly below about 0.91 (no sharp cut-off); inconclusive = no clear call, values can overlap the other calls; inactive = mostly above about 0.92. The list shows a part of the results.
Outcomes: active, inactive

compound=Cc1nc2sccn2c(=O)c1CCN1CCC(=C(c2ccc(F)cc2)c2ccc(F)cc2)CC1 discrete_label=inactive
compound="COc1cc2c(cc1O)C(Cc1ccc(O)cc1)N(C)CC2 (centres undefined)" discrete_label=inactive
compound=COC(=O)c1c(C)cc(OC(=O)c2c(C)c(Cl)c(O)c(C=O)c2O)c(C)c1O discrete_label=inactive
compound=CN(C)CCOC(=O)COc1ccc(Cl)cc1 discrete_label=inactive
compound=N[C@@H](Cc1cc(I)c(Oc2cc(I)c(O)c(I)c2)c(I)c1)C(=O)O discrete_label=active
compound="C[C@@H]1O[C@@H](O[C@H]2C[C@@H](O)[C@]3(CO)C4C(CC[C@]3(O)C2)[C@@]2(O)CC[C@H](C3=CC(=O)OC3)[C@@]2(C)C[C@H]4O)[C@H](O)[C@H](O)[C@H]1O (some centres undefined)" discrete_label=inactive
compound=O=C(O)Cc1cc(I)c(Oc2cc(I)c(O)c(I)c2)c(I)c1 discrete_label=inactive
compound="Nc1ccn(C2O[C@H](CO)[C@@H](O)[C@H]2O)c(=O)n1 (some centres undefined)" discrete_label=inactive
compound=S=P(N1CC1)(N1CC1)N1CC1 discrete_label=inactive
compound=CC(=O)Nc1nnc(S(N)(=O)=O)s1 discrete_label=inactive
compound="C[C@H](CCC(=O)O)[C@H]1CCC2C3C(CC[C@@]21C)[C@@]1(C)CC[C@@H](O)C[C@H]1C[C@@H]3O (some centres undefined)" discrete_label=inactive
compound="COC(=O)CCC(C)[C@H]1CCC2C3C(C[C@H](O)[C@@]21C)[C@@]1(C)CC[C@@H](O)C[C@H]1C[C@H]3O (some centres undefined)" discrete_label=inactive
compound="CC(CCC(=O)O)[C@H]1CCC2C3C(C[C@H](O)[C@@]21C)[C@@]1(C)CC[C@@H](O)C[C@H]1C[C@H]3O (some centres undefined)" discrete_label=inactive
compound=COc1ccc(C(=O)CC(=O)c2ccc(C(C)(C)C)cc2)cc1 discrete_label=inactive
compound=N[C@H](Cc1cc(I)c(Oc2ccc(O)c(I)c2)c(I)c1)C(=O)O discrete_label=inactive
compound=CC(=O)Nc1ccccc1 discrete_label=inactive
compound=N[C@@H](Cc1cc(I)c(Oc2ccc(O)c(I)c2)c(I)c1)C(=O)O discrete_label=inactive
compound="Cc1cc(O)c(C=O)c2c1C(=O)Oc1c(C)c(O)c3c(c1O2)C(O)OC3=O (centres undefined)" discrete_label=inactive
compound=NC(N)=NCCC[C@@H](NC(=O)[C@@H](N)Cc1ccc(O)cc1)C(=O)O discrete_label=inactive
compound=COC(=O)CCCOc1ccc(Cl)cc1Cl discrete_label=inactive
compound=COc1cc([C@@H]2c3cc4c(cc3[C@H](OC(C)=O)[C@H]3COC(=O)[C@@H]23)OCO4)cc(OC)c1OC discrete_label=inactive
compound="CN[C@@H]1[C@H](OC2[C@H](O[C@H]3[C@H](O)[C@@H](O)[C@H](N=C(N)N)[C@@H](O)[C@@H]3N=C(N)N)O[C@@H](C)[C@]2(O)C=O)O[C@@H](CO)[C@H](O)[C@H]1O (some centres undefined)" discrete_label=inactive
compound="CC(=O)OCC(=O)[C@@]1(O)[C@H](OC(C)=O)CC2C3CCC4=CC(=O)C=C[C@]4(C)[C@@]3(F)[C@@H](O)C[C@@]21C (some centres undefined)" discrete_label=inactive
compound=O=C(Nc1ccccc1)c1ccccc1O discrete_label=inactive

###

- ASSAY_OVERVIEW: chemical genetic growth profiling, strain panel (AID 1159580);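 further: tested at 20 µM; growth read once vehicle control cultures reached saturation at 30 °C; 1 = growth at the plate median or of vehicle wells; lower values mean less growth of the strain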
- RECORDED_CONDITIONS: S. cerevisiae deletion strains, growth OD, locus YDR502C, strain sam2, stronger effect = lower value
Hit rate of the full screen: of about 5,500 compounds, about 2,000 (36%) were called active. Roughly 18% stayed inconclusive and do not appear here. The list shows a part of the results. Where a SMILES comes first, the peptide text is derived from it.
Entries and their normalized growth
TEST_READOUT: normalized growth

compound="CN(C)CCC(c1ccc(Br)cc1)c1ccccn1 (stereo not given)" test_readout="normalized growth" observed_result=0.984
compound="CCCCCC1C(=O)CCC1CC(=O)OC (stereo not given)" test_readout="normalized growth" observed_result=0.996
compound=CC12CC3CC(C)(C1)CC(N)(C3)C2 test_readout="normalized growth" observed_result=1.01
compound=O=c1cc(-c2cc(O)c(O)c(O)c2)oc2cc(O)cc(O)c12 test_readout="normalized growth" observed_result=0.984
compound=O=c1[nH]cnc2[nH]ncc12 test_readout="normalized growth" observed_result=1.01
compound="COc1cc2c(cc1O)C(Cc1ccc(O)cc1)N(C)CC2 (stereo not given)" test_readout="normalized growth" observed_result=0.979
compound="Cc1cc(O)c(C=O)c2c1C(=O)Oc1c(C)c(O)c3c(c1O2)C(O)OC3=O (stereo not given)" test_readout="normalized growth" observed_result=0.974
compound="COc1c2ccoc2nc2c(OC)c(OCC(O)C(C)(C)O)ccc12 (stereo not given)" test_readout="normalized growth" observed_result=1.01
compound=Cc1cc(=O)oc2c(O)c(O)ccc12 test_readout="normalized growth" observed_result=1
compound=NC(N)=NCCC[C@@H](NC(=O)[C@@H](N)Cc1ccc(O)cc1)C(=O)O test_readout="normalized growth" observed_result=1.02
compound=Clc1ccc2c(c1)C(N1CCNCC1)=Nc1ccccc1O2 test_readout="normalized growth" observed_result=0.959
compound=CC(=O)Nc1nnc(S(N)(=O)=O)s1 test_readout="normalized growth" observed_result=0.943
compound=Cc1cc(O)c(C)c2c1C(=O)Oc1c(C)c(O)c(C(=O)O)c(C)c1O2 test_readout="normalized growth" observed_result=0.982
compound="CC(CN1c2ccccc2Sc2cccnc21)N(C)C (stereo not given)" test_readout="normalized growth" observed_result=1.01
compound="NCCCCC(N)C(=O)NC(Cc1ccc(O)cc1)C(=O)NC(CCCCN)C(=O)O (stereo not drawn) (H-Lys-Tyr-Lys-OH; configuration not given here)" test_readout="normalized growth" observed_result=1
compound=N[C@@H](Cc1cc(I)c(Oc2cc(I)c(O)c(I)c2)c(I)c1)C(=O)O test_readout="normalized growth" observed_result=1.05
compound="CCC(=O)c1ccc2c(c1)N(CC(C)N(C)C)c1ccccc1S2 (stereo not given)" test_readout="normalized growth" observed_result=0.986
compound=c1ccc2c(c1)CN1CCCC1=N2 test_readout="normalized growth" observed_result=0.988
compound="CC(CCC(=O)O)[C@H]1CCC2C3C(C[C@H](O)[C@@]21C)[C@@]1(C)CC[C@@H](O)C[C@H]1C[C@H]3O (stereo not given in full)" test_readout="normalized growth" observed_result=1.01
compound=COc1cc(OC)c2c3c1C(=O)c1c(OC)cc(C)c4c(OC)cc(c-3c14)C(C)(C)C2=O test_readout="normalized growth" observed_result=0.981
compound=N[C@@H](Cc1cc(I)c(Oc2ccc(O)c(I)c2)c(I)c1)C(=O)O test_readout="normalized growth" observed_result=0.987
compound="CCN(CC)C(C)CN1c2ccccc2Sc2ccccc21 (stereo not given)" test_readout="normalized growth" observed_result=0.954
compound=CC1=C2[C@H]3OC(=O)[C@@H](C)[C@@H]3CC[C@@]2(C)C=CC1=O test_readout="normalized growth" observed_result=1.02
compound="CC(C)CCCC(C)C1CCC2C3CC[C@H]4CCCC[C@]4(C)C3CC[C@]12C (stereo not given in full)" test_readout="normalized growth" observed_result=0.978
compound="CN1CC(CNC(=O)OCc2ccccc2)CC2c3cccc4c3c(cn4C)CC21 (stereo not given)" test_readout="normalized growth" observed_result=0.941
compound="CC(CN(C)C)CN1c2ccccc2CCc2ccccc21 (stereo not given)" test_readout="normalized growth" observed_result=1.03
compound="NC(N)=NCCCC(NC(=O)C(N)Cc1ccc(O)cc1)C(=O)O (stereo not given)" test_readout="normalized growth" observed_result=0.987
compound="CC(CCC(=O)O)[C@H]1CCC2C3C[C@H](O)[C@@H]4C[C@H](O)CC[C@]4(C)C3CC[C@@]21C (stereo not given in full)" test_readout="normalized growth" observed_result=1.04
compound="CC(CCC(=O)O)[C@H]1CCC2C3CC[C@@H]4C[C@H](O)CC[C@]4(C)C3CC[C@@]21C (stereo not given in full)" test_readout="normalized growth" observed_result=0.878
compound=COc1cc(C(=O)O)c2c(c1C)OC(=O)c1c(C)cc(O)c(C=O)c1O2 test_readout="normalized growth" observed_result=1
